// provenance: PubChem BioAssay AID1529

molecular target: Mitogen-activated protein kinase kinase kinase 3 (Homo sapiens) (UniProt Q99759); test: modulators of MEKK3-MEK5 PB1 binding, primary screen, biochemical, wildtype MEKK3, multiplex bead flow cytometry, Alexa488-MEK5 (AID 1529); settings: bead-based flow cytometry, Alexa488-MEK5 binding to MEKK3; at 10 µM; actives lie on both sides; 0 = blocked by unlabeled MEK5, 100 = vehicle;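 also: Alexa488 bead fluorescence after subtracting the streptavidin-only scavenger bead signal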
Sequence (Q99759 whole entry, looked up): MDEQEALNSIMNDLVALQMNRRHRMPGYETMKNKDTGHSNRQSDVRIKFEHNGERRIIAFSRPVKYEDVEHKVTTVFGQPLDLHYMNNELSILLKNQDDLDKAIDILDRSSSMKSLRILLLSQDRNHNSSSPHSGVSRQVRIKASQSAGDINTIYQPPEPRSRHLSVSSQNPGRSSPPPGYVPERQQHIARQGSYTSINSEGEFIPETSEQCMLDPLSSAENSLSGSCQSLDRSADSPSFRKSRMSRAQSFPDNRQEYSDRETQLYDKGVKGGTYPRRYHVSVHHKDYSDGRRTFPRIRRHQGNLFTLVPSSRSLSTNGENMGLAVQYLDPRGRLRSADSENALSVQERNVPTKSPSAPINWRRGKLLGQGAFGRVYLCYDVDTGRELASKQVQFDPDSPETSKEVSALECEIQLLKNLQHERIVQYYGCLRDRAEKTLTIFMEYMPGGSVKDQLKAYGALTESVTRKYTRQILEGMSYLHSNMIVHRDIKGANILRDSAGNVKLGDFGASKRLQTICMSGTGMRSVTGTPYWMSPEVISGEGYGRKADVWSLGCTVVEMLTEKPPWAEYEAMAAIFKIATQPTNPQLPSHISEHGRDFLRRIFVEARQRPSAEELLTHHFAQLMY
About 4,200 (1.4%) of roughly 290,000 compounds were called active.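 The calls were made as follows: active = binding response more than 3 SD above or below the average of its plate-row segment, actives on both sides; inconclusive = wells at one plate position flagged as instrument error; inactive = the rest.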 Shown is part of a subset that was picked to be rich in actives.
Response enum: label 1 = active, label 0 = inactive

Cn1nnc2cc(C(=O)NCCC3=CCCCC3)ccc21 :: label 0

Tell me the recorded outcome of this test for C/C=C/c1ccc(OCCCCN2CCC(C)CC2)c(OC)c1 .
label 1

Could you kindly confirm the outcome this assay logged for CC/S(CC1CC1(Cl)Cl)=N\S(=O)(=O)c1ccc(C)cc1 (stereo not drawn) ?
label 0

Could you kindly confirm the outcome this assay logged for CC(C)(C)OC(=O)N1CCC(C(=O)NNC(=O)c2ccc(Cl)cc2Cl)CC1 ?
label 0

Would you mind telling me which call this test gave Cc1nn(-c2ccccc2)c(Cl)c1C(=O)Nc1ccccc1 ?
label 0

Lab log entry: CCCC/S(C)=N/S(=O)(=O)c1ccc(C)cc1 (stereo not drawn) — outcome as called in the assay?
label 0
